Reference for the values: paper PMC10980815

METHOD SUMMARY: ζ-potential (Zetasizer)
Type: physicochemical
MEASUREMENT PARAMETERS: Malvern Zetasizer Nano ZS90; mean ± SD
Ends that are not written are not given here. HPMA copolymer = HPMA copolymer made by RAFT copolymerization of HPMA with N-(3-aminopropyl)methacrylamide (APMA), bearing maleimide groups for grafting
READOUT NAME: ζ-potential (mV)
The figure you give is taken to be in mV; do not add the unit.

Query block: Fill blank: measured ζ-potential of the substance P-CM2: HPMA copolymer-CM2 conjugate, ~12 CM2 grafts per polymer (C(HPMA copolymer)YGGEVSALEKEVSALEKKNSALEKEVSALEKEVSALEK; also: CM2 N-terminal cysteine joined to a maleimide of the HPMA copolymer backbone, ~12 per polymer) is ____.
Result block: -8.73

Query block: Fill blank: measured ζ-potential of the substance P-CM2-Cy3: Cy3-labeled P-CM2 (C(HPMA copolymer)YGGEVSALEKEVSALEKKNSALEKEVSALEKEVSALEK; also: Cy3 label on conjugate, position not given here) is ____.
Result block: -9.21

Query block: Fill blank: measured ζ-potential of the substance P-PS-CM2: HPMA backbone grafted with CM2 and chlorin e6 photosensitizer (C(HPMA copolymer)YGGEVSALEKEVSALEKKNSALEKEVSALEKEVSALEK; also: chlorin e6 photosensitizer on polymer) is ____.
Result block: -11.21

Query block: Fill blank: measured ζ-potential of the substance P-BS: HPMA copolymer-BS conjugate, ~6 BS grafts per polymer (LGASWHRPDKCCLGYQKRPLPA; not fully specified (residues 11, 12); also: about 6 peptides grafted on HPMA copolymer via cysteine-maleimide thioether links) is ____.
Result block: -15.53

Query block: Fill blank: measured ζ-potential of the substance P-CM2-Cy5: Cy5 labeled P-CM2 (C(HPMA copolymer)YGGEVSALEKEVSALEKKNSALEKEVSALEKEVSALEK; also: Cy5 label on conjugate, position not given here) is ____.
Result block: -8.94

Query block: Fill blank: measured ζ-potential of the substance P-BS-PS: BS-multivalently-modified polymer-PS conjugate (LGASWHRPDKCCLGYQKRPLPA; not fully specified (residues 11, 12); cysteine pairing not given here; also: chlorin e6 photosensitizer on polymer) is ____.
Result block: -18.24
